Below, each entry is listed with its recorded Level of intensity of expression in log2 measured with the Agilent chips, D7.
# Tested on: human airway epithelial cells (HAECs)
# Assay procedure: Agilent miRNA chips, miRNA expression at four stages of differentiation of HAECs
# Experimental parameters: stage D7; Table VI
Use log2 as the unit, but write only the number.

Recorded Level of intensity of expression in log2 measured with the Agilent chips, D7, per entry:
hsa-let-7f: human miRNA, SEQ ID No. 161 (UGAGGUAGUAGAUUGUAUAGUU; expressed or natural sequence; listed as Homo sapiens): 12.75
hsa-miR-425: human miRNA, SEQ ID No. 44 (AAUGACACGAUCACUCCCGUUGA; expressed or natural sequence; listed as Homo sapiens): 8.21

Problem: Which value of Level of intensity of expression in log2 measured with the Agilent chips, D7 has been reported for hsa-miR-34a: human miRNA, SEQ ID No. 38 (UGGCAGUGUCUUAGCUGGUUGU; expressed or natural sequence; listed as Homo sapiens) in the records?
Solution: 10.89

Problem: Look up Level of intensity of expression in log2 measured with the Agilent chips, D7 for this substance: hsa-miR-203: human miRNA, SEQ ID No. 19 (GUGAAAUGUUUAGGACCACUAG; expressed or natural sequence; listed as Homo sapiens)
Solution: 11.61

Problem: Consider the substance hsa-miR-92b: human miRNA, SEQ ID No. 49 (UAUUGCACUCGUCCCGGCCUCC; expressed or natural sequence; listed as Homo sapiens) and give its measured Level of intensity of expression in log2 measured with the Agilent chips, D7.
Solution: 0.57

Problem: Looking for the measured Level of intensity of expression in log2 measured with the Agilent chips, D7 of hsa-miR-125a-5p: human miRNA, SEQ ID No. 3 (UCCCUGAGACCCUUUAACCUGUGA; expressed or natural sequence; listed as Homo sapiens) , can you help?
Solution: 8.66

Problem: Endpoint output: Level of intensity of expression in log2 measured with the Agilent chips, D7 of hsa-miR-16: human miRNA, SEQ ID No. 10 (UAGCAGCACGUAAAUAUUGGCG; expressed or natural sequence; listed as Homo sapiens) . Value?
Solution: 11.54

Problem: I have this substance here, hsa-miR-106b: human miRNA, SEQ ID No. 2 (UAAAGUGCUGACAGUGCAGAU; expressed or natural sequence; listed as Homo sapiens) , and I need its recorded Level of intensity of expression in log2 measured with the Agilent chips, D7.
Solution: 9.47

Problem: Consider the substance hsa-miR-29c: human miRNA, SEQ ID No. 32 (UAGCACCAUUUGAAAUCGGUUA; expressed or natural sequence; listed as Homo sapiens) and give its measured Level of intensity of expression in log2 measured with the Agilent chips, D7.
Solution: 10.66

Problem: What does the record list as Level of intensity of expression in log2 measured with the Agilent chips, D7 for hsa-let-7c: human miRNA, SEQ ID No. 159 (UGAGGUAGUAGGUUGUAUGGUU; expressed or natural sequence; listed as Homo sapiens) ?
Solution: 10.71

Problem: Find the recorded Level of intensity of expression in log2 measured with the Agilent chips, D7 belonging to hsa-miR-200a: human miRNA, SEQ ID No. 16 (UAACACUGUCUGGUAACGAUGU; expressed or natural sequence; listed as Homo sapiens) and report it.
Solution: 10.58
